Taken from paper PMC3295541.

Molecular target: PdxB (Escherichia coli, UniProt P05459)
Sequence (P05459 whole entry): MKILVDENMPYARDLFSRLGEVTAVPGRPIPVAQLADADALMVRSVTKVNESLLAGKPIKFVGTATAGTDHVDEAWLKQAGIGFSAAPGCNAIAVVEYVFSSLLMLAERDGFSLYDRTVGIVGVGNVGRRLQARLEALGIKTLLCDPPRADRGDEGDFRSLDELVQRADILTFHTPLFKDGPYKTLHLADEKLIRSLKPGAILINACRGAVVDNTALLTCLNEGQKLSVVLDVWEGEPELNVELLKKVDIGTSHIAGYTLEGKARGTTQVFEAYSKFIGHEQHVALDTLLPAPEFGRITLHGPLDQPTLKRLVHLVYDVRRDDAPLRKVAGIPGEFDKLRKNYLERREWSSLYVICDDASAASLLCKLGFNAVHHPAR
recorded endpoint: IC50

Record lookup: for PdxB (Escherichia coli, UniProt P05459), what IC50 belongs to O=C(O)CC[C@H](O)C(=O)O [L-2-HGA] ? > 2000 µM
